- study_system: Schweinepankreaslipase (Sus scrofa)
- Sequence (P00591 whole entry): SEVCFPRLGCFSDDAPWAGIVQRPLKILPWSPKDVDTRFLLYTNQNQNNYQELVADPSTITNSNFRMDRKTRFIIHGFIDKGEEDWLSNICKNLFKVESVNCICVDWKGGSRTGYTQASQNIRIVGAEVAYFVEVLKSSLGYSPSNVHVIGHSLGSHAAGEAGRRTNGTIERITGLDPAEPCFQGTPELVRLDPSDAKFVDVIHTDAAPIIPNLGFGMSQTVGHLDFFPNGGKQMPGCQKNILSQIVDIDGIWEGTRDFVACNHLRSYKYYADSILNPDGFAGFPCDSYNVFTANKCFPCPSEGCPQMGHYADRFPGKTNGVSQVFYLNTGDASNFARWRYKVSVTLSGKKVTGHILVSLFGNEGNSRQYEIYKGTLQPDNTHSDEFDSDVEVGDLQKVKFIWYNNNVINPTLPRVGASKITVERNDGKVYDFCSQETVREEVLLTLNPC
- protocol_description: Inhibition of pancreatic lipase (titrimetric measurement of oleic acid released from triolein)
- Format: biochemical, Schwein
- measurement_conditions: substrate triolein emulsion, pH 8, NaOH consumption over 10 min, 1-3 µg lipase; concentration giving half-maximal inhibition of lipase activity; read-out: IC₅₀ (converted)
One threshold, 200 nM, splits the recorded IC50 values: lower ones are met, equal or higher ones are not met.

Example entries begin here.
compound="CCCCCCCCCCCCCCCCC[C@@H](C[C@@H]1OC(=O)[C@H]1CC)OC(=O)C(C(N)=O)C(C)C (single isomer, unassigned) [Beispiel 1a]" class_name=met
compound="CCCCCCCCCCC[C@@H](C[C@@H]1OC(=O)[C@H]1CCCCCC)OC(=O)C(CCC)C(N)=O (mixture of isomers)" class_name="not met"

In the record for CCCCCCCCCCC[C@@H](C[C@@H]1OC(=O)[C@H]1CCCCCC)OC(=O)CC(N)=O , is IC50 less than 200 nM?
not met

In the record for CCCCCCCCCCC[C@@H](C[C@@H]1OC(=O)[C@H]1CCCCCC)OC(=O)C(N)=O , is IC50 less than 200 nM?
not met

In the record for CCCCCCCCCCC[C@@H](C[C@@H]1OC(=O)[C@H]1CCCCCC)OC(=O)CC(=O)NC , is IC50 less than 200 nM?
not met

In the record for CCCCCCCCCCC[C@@H](C[C@@H]1OC(=O)[C@H]1CCCCCC)OC(=O)C(CC(C)C)C(N)=O (mixture of isomers) , is IC50 less than 200 nM?
met

In the record for CCCCCCCCCCCCCCCCC[C@@H](C[C@@H]1OC(=O)[C@H]1CC)OC(=O)C(C(N)=O)C(C)C (single isomer, unassigned) [Beispiel 1b] , is IC50 less than 200 nM?
met
